Please find below IC50 data on Tyrosine-protein kinase JAK3 (Homo sapiens, UniProt P52333) compiled from the literature.

Below, 3 compounds whose answers are already recorded.
COMPOUND SMILES: COc1cccc(-c2nc3cnc(-n4cnc5ccc(C#N)cc54)nc3n2C2CCOCC2)c1
TARGET OR TEST SYSTEM: Tyrosine-protein kinase JAK3 (Homo sapiens, UniProt P52333)
ASSAY METRIC: IC50
DATA VALUE: 100 to 1000 nM
--
COMPOUND SMILES: O=c1[nH]c2c(N3CC(O)C3)nc(-n3cnc4ccc(F)cc43)nc2n1C1CCOCC1
TARGET OR TEST SYSTEM: Tyrosine-protein kinase JAK3 (Homo sapiens, UniProt P52333)
ASSAY METRIC: IC50
DATA VALUE: < 100 nM
--
COMPOUND SMILES: COCC#CC(=O)N1CC2(CC(n3nc(-c4ccc(Oc5ccccc5)cc4)c4cncnc43)C2)C1
TARGET OR TEST SYSTEM: Tyrosine-protein kinase JAK3 (Homo sapiens, UniProt P52333)
ASSAY METRIC: IC50
DATA VALUE: > 500 nM

Let us move to another entry and its IC50.
Dear colleague, please send me the reported IC50 for NC(=O)c1cnc(Nc2ccc3c(c2)NC[C@H](O)CO3)nc1NCC1CCCC1 when you can.
< 10 nM

====

Please find below IC50 data on Tyrosine-protein kinase JAK3 (Homo sapiens, UniProt P52333) compiled from the literature.

MOLECULE: CCC(=O)N1CCC[C@@H](Nc2n[nH]c3nccc(Oc4ccc(C(=O)Nc5cc(C(F)(F)F)ccn5)cc4)c23)C1
IC50: > 10 µM

Could I get IC50 for every one of these entries?
1. Cn1nccc1-c1cc2c(NC3C4CC5CC3CC(O)(C5)C4)c(C(N)=O)cnn2c1 (centres unmarked)
2. C=CC(=O)Nc1cc(-n2c(=O)ccc3cnc4ccc(-c5ccoc5)cc4c32)ccc1C
3. CC(=O)Nc1cc2c(N[C@@H]3CC[C@@](C)(O)C3(C)C)c(C(N)=O)cnn2c1 (racemic)
4. CCC(=O)c1cnc(Nc2cc(CN3CCOCC3)ccn2)cc1Nc1cccc(-c2ncn(C)n2)c1OC
5. C=CC(=O)N(C)c1cccc(Nc2cc(Nc3ccc(Oc4ccccc4)cc3)ncn2)n1

1: 0.0062 µM; 2: 0.492 µM; 3: 0.0009 µM; 4: 0.05 to 0.5 µM; 5: ≤ 0.01 µM

Could I get IC50 for every one of these entries?
1. COc1cc(-c2ccnc(Nc3ccc(N4CCOCC4)cc3)n2)ccc1C#N
2. C=CC(=O)N1CCC[C@@H](Oc2n[nH]c3nccc(Nc4cccc(C(=O)Nc5ccc(C(C)C)c(C)c5)c4)c23)C1

1: > 1 µM; 2: < 0.1 µM

====

pIC50: −log10 of the molar value.
Please find below pIC50 data on Tyrosine-protein kinase JAK3 (Homo sapiens) compiled from the literature.

COMPOUND SMILES: N#Cc1ccc2ncn(-c3ncc4nc(Nc5cccnc5)n(C5CCOCC5)c4n3)c2c1
pIC50: > 7.00

Could I get pIC50 for every one of these entries?
1. CN(c1ncnc2[nH]ccc12)C1CCC2(CC1)CCN(S(=O)(=O)CC(F)(F)F)CC2
2. Fc1ccc2ncn(-c3ncc4nc(-c5cccc(OC(F)(F)F)c5)n(C5CCOCC5)c4n3)c2c1

1. 6.00 to 7.00
2. < 6.00

Could I get pIC50 for every one of these entries?
1. Cc1cnc2nc1NCCCCCCCNC(=O)c1ccc(cc1F)-c1cnc(F)c(c1)N2
2. C=CC(=O)Nc1cccc(Nc2cc(N3CCc4ccccc43)ncn2)c1
3. CNCc1cn(-c2cc(C(=O)Nc3ccc(C)c(-c4ccc5c(c4)[nH]c4ncncc45)c3)cc(C(F)(F)F)c2)cn1
4. O=C(O)Cn1cc(Nc2ncc3ccn(CC4CCCCC4)c3n2)cn1
5. CCc1cc(O)ccc1-c1cc2[nH]ncc2c(N2CC(C)(O)C2)n1

1. 5.00 to 6.00
2. ≥ 8.00
3. ≥ 6.30
4. > 7.00
5. 7.77

Could I get pIC50 for every one of these entries?
1. Cc1ccnc(NC(=O)c2ccc(Oc3ccnc4[nH]nc(N[C@@H]5CCCN(C(=O)c6nccs6)C5)c34)cc2)c1
2. C=CC(=O)N1CCC[C@@H](Nc2nc(Nc3cc(C)ns3)nc3sccc23)C1

1. < 5.00
2. 7.00 to 8.00
